Provide the recorded protein stability index for the entries that follow.
B1: CLPTM1 (parent)
chain: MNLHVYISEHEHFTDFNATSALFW

- Variants of: B1
- PROTOCOL_DESCRIPTION: protein stability index of a GFP-peptide fusion (GPS, HEK-293T) (PSI 1-6); higher = more stable;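 also: lentivirally expressed fusions sorted by FACS into six bins by GFP to DsRed ratio, PSI derived from sequencing read proportions per bin multiplied by bin number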
- MEASUREMENT_PARAMETERS: c terminus: a fixed tail appended
Output: the number by itself.

Prompt: Requested field: protein stability index. Item: L3C
Completion: 1.94

Prompt: What do you have for E9V ?
Completion: 3.22

Prompt: What do you have for M1S ?
Completion: 2.69

Prompt: What do you have for S20Y ?
Completion: 3.45

Prompt: What do you have for W24Q ?
Completion: 2.2

Prompt: What do you have for D15A ?
Completion: 3.71

Prompt: What do you have for L3R ?
Completion: 1.96

Prompt: What do you have for D15Q ?
Completion: 2.3

Prompt: What do you have for F13A ?
Completion: 3.39

Prompt: What do you have for A18S ?
Completion: 2.46

Prompt: What do you have for F23D ?
Completion: 3.62
